tgt: LATS1 kinase (Homo sapiens (Human), UniProt O95835)
Sequence (O95835 589-1130): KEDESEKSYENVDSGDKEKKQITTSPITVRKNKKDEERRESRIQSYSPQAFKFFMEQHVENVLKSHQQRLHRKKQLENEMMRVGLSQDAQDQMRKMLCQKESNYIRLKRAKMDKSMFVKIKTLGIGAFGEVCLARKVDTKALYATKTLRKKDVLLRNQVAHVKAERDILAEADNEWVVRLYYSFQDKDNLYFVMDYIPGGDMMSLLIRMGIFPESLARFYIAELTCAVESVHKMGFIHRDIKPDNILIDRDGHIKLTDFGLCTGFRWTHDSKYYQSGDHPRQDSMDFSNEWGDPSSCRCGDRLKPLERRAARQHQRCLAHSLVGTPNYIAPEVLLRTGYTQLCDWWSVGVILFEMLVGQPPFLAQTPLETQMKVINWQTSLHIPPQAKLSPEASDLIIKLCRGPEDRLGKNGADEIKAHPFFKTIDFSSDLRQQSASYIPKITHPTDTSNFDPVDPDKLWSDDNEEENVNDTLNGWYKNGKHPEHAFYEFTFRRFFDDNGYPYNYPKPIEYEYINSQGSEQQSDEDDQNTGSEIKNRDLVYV
methodDescription: LATS1 Biochemical HTRF Assay
protocolConditions: 2 mM ATP; read-out: LATS1_HTRF_2 mM ATP IC50
Listed here: items and their measured log10 of IC50.
testReadout: log10 of IC50 (log10 of the value in nM)

| compound | testReadout | measuredResult |
| --- | --- | --- |
| O=C(/N=C1\SCC(=O)N1c1ccccc1)c1c[nH]c2ncccc12 | log10 of IC50 | 2.35 |
| CN(C)CCNC(=O)c1cs/c(=N\C(=O)c2ccnc3[nH]ccc23)n1Cc1ccccc1 | log10 of IC50 | 2.66 |
| O=C(/N=C1\SCCN1c1cc(F)ccc1O)c1c[nH]c2ncccc12 | log10 of IC50 | 0.18 |
| CC(O)CN1CCS/C1=N\C(=O)c1c[nH]c2ncccc12 (stereo not drawn) | log10 of IC50 | 2.32 |
| O=C(/N=C1\SCCN1c1ccc[nH]c1=O)c1c[nH]c2ncccc12 | log10 of IC50 | 2.28 |
| O=C(/N=c1\scc(CN2CCOCC2)n1-c1ccccc1Cl)c1c[nH]c2ncccc12 | log10 of IC50 | 0.04 |
| Cc1ccccc1-n1ccs/c1=N\C(=O)c1ccnc2[nH]ccc12 | log10 of IC50 | 1.52 |
| O=C(/N=C1\SCCCN1c1ccccc1Cl)c1c[nH]c2ncccc12 | log10 of IC50 | 0.20 |
| O=C(/N=C1\SCCN1c1ccccc1O)c1c[nH]c2ncccc12 | log10 of IC50 | -0.23 |
